src = patent US20150080438A1

- measurement-target: oestrogen receptor (ER) (Homo sapiens, UniProt P03372)
- Construct: These MVLN cells express, along with the functional oestrogen receptor (ER), a reporter construct; endogenous in cells; host or cells: MVLN cells (MCF7 derivative with ER-responsive luciferase reporter)
- Sequence (P03372 1-595): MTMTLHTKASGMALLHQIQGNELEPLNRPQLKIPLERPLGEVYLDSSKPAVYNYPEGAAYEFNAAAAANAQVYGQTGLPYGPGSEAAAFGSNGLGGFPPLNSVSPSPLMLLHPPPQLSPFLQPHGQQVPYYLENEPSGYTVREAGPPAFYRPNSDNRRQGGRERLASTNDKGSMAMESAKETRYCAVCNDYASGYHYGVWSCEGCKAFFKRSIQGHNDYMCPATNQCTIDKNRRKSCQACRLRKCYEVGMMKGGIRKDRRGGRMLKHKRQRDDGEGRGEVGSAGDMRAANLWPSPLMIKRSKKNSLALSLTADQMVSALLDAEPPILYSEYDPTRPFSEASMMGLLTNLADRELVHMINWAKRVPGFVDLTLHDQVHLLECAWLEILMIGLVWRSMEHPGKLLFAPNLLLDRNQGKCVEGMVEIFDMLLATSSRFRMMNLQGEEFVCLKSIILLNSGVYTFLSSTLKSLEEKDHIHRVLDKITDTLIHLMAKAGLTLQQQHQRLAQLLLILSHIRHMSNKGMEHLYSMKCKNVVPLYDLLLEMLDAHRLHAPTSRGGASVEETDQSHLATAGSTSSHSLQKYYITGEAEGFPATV
- test-summary: Anti-oestrogenic action in MVLN cells (inhibition of estradiol-induced luciferase, transactivation antagonism)
- Assay type: cell-based
- conditions: inhibition of estradiol-induced luciferase activity, read-out: Anti-oestrogenic action in vitro: MVLN transactivation antagonism IC50
readout: IC50 (nM)
Please state the figure in nM; there is no need to write the unit.

For reference, reported IC50 for CN(CCCCCCC1=C(c2ccc(F)c(O)c2)CCCc2cc(O)c(F)cc21)CCCCS(=O)(=O)CCCC(F)(F)C(F)(F)F stands at 7

The measured IC50 associated with [O-][S+](CCCN(CCO)CCCCCCC1=C(c2cccc(O)c2)CCCc2cc(O)ccc21)CCC(F)(F)F (racemic) reads 7

Sure, the documented IC50 for CN(CCCCCCC1=C(c2cccnc2)CCCc2cc(O)ccc21)CCCS(=O)(=O)CCCC(F)(F)C(F)(F)F is 7
